Cited source for all entries: patent US20240124605A1

Target: T1, CD123-Fc (Sino Biological) (human, UniProt P26951 19-305)
T1 construct: Bought reagent; not shown: Fc of the bought fusion (detected with anti-human Fc, captured on AHC sensor)
T1 sequence: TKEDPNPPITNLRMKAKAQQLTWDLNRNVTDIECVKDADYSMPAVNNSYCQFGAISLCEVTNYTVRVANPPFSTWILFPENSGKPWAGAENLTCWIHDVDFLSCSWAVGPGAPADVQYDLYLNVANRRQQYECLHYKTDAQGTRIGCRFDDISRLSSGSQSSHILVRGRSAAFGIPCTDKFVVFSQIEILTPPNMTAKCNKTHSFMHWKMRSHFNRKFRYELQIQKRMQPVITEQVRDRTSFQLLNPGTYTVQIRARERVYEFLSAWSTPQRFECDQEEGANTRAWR
Assay: BLI (Octet), CD123-Fc captured on AHC sensor, Adapter 500-0.69 nM in solution, global 1:1 fit, 25 C
Measured pKd accompanies every entry in the list below.
Quick note: pKd means taking -log10 of the concentration in moles per liter.

Completed entries (count: 4):
# Binder, pKd
measured = [
    ("Adapter protein comprising the 1F9I D domain and a P26(Q26-V229) AFP polypeptide (designed binder, also called 6T1D(L21Q, I59L); not shown: His tag (purified on Ni-Sepharose)) MGSWDEFGRRLYAIEWQLYAQGGTEAELAAFEKEIAAFESELQAYKGKGNPEVEKLRELAAVIRENLQAYRHNQESQALAKRSCGLFQKLGEYYLQNAFLVAYTKKAPQLTSSELMAITRKMAATAATCCQLSEDKLLACGEGAADIIIGHLCIRHEMTPVNPGVGQCCTSSYANRRPCFSSLVVDETYVPPAFSDDKFIFHKDLCQAQGVALQTMKQEFLINLVKQKPQITEEQLEAVIADFSGLLEKCCQGQEQEVCFAEEGQKLISKTRAALGV", 8.12),
    ("Adapter protein comprising the 8W9C D domain and a P26(Q26-V229) AFP polypeptide (designed binder, also called wild type; not shown: His tag (purified on Ni-Sepharose)) MGSWDEFGRRLYAIEWRLYALGGSEAELAAFEKEIAAFESELQAYKGKGNPEVEKLREIAAVIRSNLQAYRHNQESQALAKRSCGLFQKLGEYYLQNAFLVAYTKKAPQLTSSELMAITRKMAATAATCCQLSEDKLLACGEGAADIIIGHLCIRHEMTPVNPGVGQCCTSSYANRRPCFSSLVVDETYVPPAFSDDKFIFHKDLCQAQGVALQTMKQEFLINLVKQKPQITEEQLEAVIADFSGLLEKCCQGQEQEVCFAEEGQKLISKTRAALGV", 8.28),
    ("Adapter protein comprising the 5B1Q D domain and a P26(Q26-V229) AFP polypeptide (designed binder, also called 6T1D(G8S, L21Q, K48E, N50S, I59L); not shown: His tag (purified on Ni-Sepharose)) MGSWDEFSRRLYAIEWQLYAQGGTEAELAAFEKEIAAFESELQAYKGEGSPEVEKLRELAAVIRENLQAYRHNQESQALAKRSCGLFQKLGEYYLQNAFLVAYTKKAPQLTSSELMAITRKMAATAATCCQLSEDKLLACGEGAADIIIGHLCIRHEMTPVNPGVGQCCTSSYANRRPCFSSLVVDETYVPPAFSDDKFIFHKDLCQAQGVALQTMKQEFLINLVKQKPQITEEQLEAVIADFSGLLEKCCQGQEQEVCFAEEGQKLISKTRAALGV", 9.14),
    ("Adapter protein comprising the 4R8U D domain and a P26(Q26-V229) AFP polypeptide (designed binder, also called 6T1D(K48E, N50S); not shown: His tag (purified on Ni-Sepharose)) MGSWDEFGRRLYAIEWQLYALGGTEAELAAFEKEIAAFESELQAYKGEGSPEVEKLREIAAVIRENLQAYRHNQESQALAKRSCGLFQKLGEYYLQNAFLVAYTKKAPQLTSSELMAITRKMAATAATCCQLSEDKLLACGEGAADIIIGHLCIRHEMTPVNPGVGQCCTSSYANRRPCFSSLVVDETYVPPAFSDDKFIFHKDLCQAQGVALQTMKQEFLINLVKQKPQITEEQLEAVIADFSGLLEKCCQGQEQEVCFAEEGQKLISKTRAALGV", 8.92),
]

// moving on: another record for pKd
Request: Item Adapter protein comprising the 6T1D D domain and a P26(Q26-V229) AFP polypeptide (designed binder, also called parental D domain (6T1D); not shown: His tag (purified on Ni-Sepharose)) MGSWDEFGRRLYAIEWQLYALGGTEAELAAFEKEIAAFESELQAYKGKGNPEVEKLREIAAVIRENLQAYRHNQESQALAKRSCGLFQKLGEYYLQNAFLVAYTKKAPQLTSSELMAITRKMAATAATCCQLSEDKLLACGEGAADIIIGHLCIRHEMTPVNPGVGQCCTSSYANRRPCFSSLVVDETYVPPAFSDDKFIFHKDLCQAQGVALQTMKQEFLINLVKQKPQITEEQLEAVIADFSGLLEKCCQGQEQEVCFAEEGQKLISKTRAALGV has what recorded pKd?
Result: 8.12
